target: T1, human transferrin receptor (recombinant, for surface plasmon resonance) (human, UniProt P02786 89-760); assay: SPR 25C
T1 construct: also called huTfR; human transferrin receptor-biotinylated
T1 sequence (P02786 89-760 limits assumed): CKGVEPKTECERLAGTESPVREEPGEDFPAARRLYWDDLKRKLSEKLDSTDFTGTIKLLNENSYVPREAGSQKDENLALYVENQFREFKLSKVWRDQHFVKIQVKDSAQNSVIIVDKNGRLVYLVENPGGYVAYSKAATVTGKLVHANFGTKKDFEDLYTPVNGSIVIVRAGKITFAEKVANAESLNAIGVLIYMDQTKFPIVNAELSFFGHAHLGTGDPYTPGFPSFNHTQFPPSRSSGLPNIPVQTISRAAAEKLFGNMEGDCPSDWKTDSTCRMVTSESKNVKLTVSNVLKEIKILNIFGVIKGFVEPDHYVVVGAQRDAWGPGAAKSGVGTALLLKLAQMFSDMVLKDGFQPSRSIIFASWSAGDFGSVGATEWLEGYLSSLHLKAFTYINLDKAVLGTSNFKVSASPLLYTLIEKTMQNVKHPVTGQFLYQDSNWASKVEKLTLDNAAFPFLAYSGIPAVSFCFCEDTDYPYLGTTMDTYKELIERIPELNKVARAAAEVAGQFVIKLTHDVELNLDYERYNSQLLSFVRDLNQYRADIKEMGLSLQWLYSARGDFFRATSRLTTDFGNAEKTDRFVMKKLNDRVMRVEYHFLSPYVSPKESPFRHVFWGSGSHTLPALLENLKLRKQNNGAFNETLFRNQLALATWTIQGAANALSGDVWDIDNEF

binder: 2/99 VH15/VL7 (antibody, V domains shown) VH: QQLQESGPGLVKPSETLSLTCTVSGFSLSSYAMSWVRQPPGKGLEWIGYIWSGGSTDYNPSLKSRVTISVDTSKNQVSLKLSSVTAADTAVYYCARRYGTSYPDYGDANGFDPWGQGTLVTVSS VL: AIQLTQSPSSLSASVGDRVTITCRASQSISSYLAWYQQKPGKAPKLLIYRASTLASGVPSRFSGSGSGTDFTLTISSLQPEDFATYYCQQSYSSSNVDNTFGGGTKVEIK
koff [s⁻¹]: 0.00543

binder: 2/99 VH0(rb)/VL0(rb) (antibody, V domains shown, 0 (rb) read as the rabbit parental domains of clone 2/99) VH: QSMEESGGRLVTPGTPLTLTCTVSGFSLSSYAMSWVRQAPGKGLEWIGYIWSGGSTDYASWAKGRFTISKTSTTVDLKITSPTTEDTATYFCARRYGTSYPDYGDANGFDPWGPGTLVTVSS VL: AYDMTQTPASVEVAVGGTVTIKCQASQSISSYLSWYQQKPGQRPKLLIYRASTLASGVSSRFKGSGSGTQFTLTISGVECADAATYYCQQCYSSSNVDNTFGGGTEVVVKR
koff [s⁻¹]: 0.000434
